Tested on: PfAP2-LT AP2 domain (GST-tagged)
RUN DESCRIPTION: gcPBM binding intensity (ln(normalized median fluorescence intensity)); higher = stronger DNA binding
Whole data set: some 25,000 sequences, median “ln(normalized median fluorescence intensity)” near 8.9, cut for the highest 2% near 10. Only a selection was taken, and the highest values are over-represented in it overall.
Entry flag: TRUE if gcPBM binding intensity (ln) reaches 9; FALSE if it does not.

Consider the following illustrative entries.
| CHAIN | ANSWER LABEL |
| --- | --- |
| ATAATTATATAAATATATATAATATATATATGAAAA [XGTACX_negctrl_site357] | FALSE |
| TATATACATATATACACACACATATATATATATATA [CACACA_site2805] | TRUE |
| TACACATACACATACACACGCATAGAAACATACGAA [CACACA_site2137] | TRUE |
| AACATATACACGAACACACACACATATATATATATA [CACACA_site502] | TRUE |
| TATTTTTCCATATGCACACACACCGTATCTAGAATA [CACACA_site6654] | TRUE |

Quick check: does TTTTCTAAATTAATAATACACACTTGCTAAAATCAT [CACACA_site3207] have gcPBM binding intensity (ln) greater than or equal to 9?
FALSE

Does the sequence ATTAAAAAAATTAAAAGTACACATATTTCAATGATA [XGTACX_site5606] have recorded gcPBM binding intensity (ln) that is 9 or more?
FALSE

Can GTTAATATTTTTGGGGGTACTTAAAAAAAAAAAAAA [XGTACX_site1477] be said to have gcPBM binding intensity (ln) at or above 9?
FALSE

Please check the record AAAAAAAAAAAACACACACACAAAAAAAAATATATA [CACACA_site1105] and state if its gcPBM binding intensity (ln) is at or above 9.
TRUE

Would you say TTTTTTCAATAAATAATCGTATATTGAATAATAATA [CACACA_negctrl_site822] shows gcPBM binding intensity (ln) at minimum 9?
FALSE

Confirm if gcPBM binding intensity (ln) reported for the sequence CTAATGATCATATATACACACACACTAATAAAAAAA [CACACA_site9329] is 9 or above.
TRUE

Say whether AAAAAAAAAAAAAACACACACACAAAAAAAAATATA [CACACA_site1104] shows gcPBM binding intensity (ln) of 9 or more.
TRUE

Determine whether this sequence has gcPBM binding intensity (ln) no lower than 9: CACACGCACGAACACACACACATATAAATATAAATA [CACACA_site6299]
TRUE

Please check the record AAAAAAAGATTATACACACACATATATAAACATACA [CACACA_site4553] and state if its gcPBM binding intensity (ln) is at or above 9.
TRUE

Exam item: decide whether the reported gcPBM binding intensity (ln) for CTAAAATACGAACACACACACACATATAAATAAATA [CACACA_site7872] is at least 9.
TRUE

Identify whether the reported gcPBM binding intensity (ln) of the following sequence is 9 or greater: ATTATTTTATATACATGTACATATTATATATAAAAG [XGTACX_site2735]
FALSE

Has ATGTTGTACAGACACACACACAAAAAAAAAATAAAA [CACACA_site7184] a recorded gcPBM binding intensity (ln) greater than or equal to 9?
TRUE
